Tested on: KRAS PDC multicell spheroid viability
assayInfo: Anticancer human tumor 521955-158-R6-J3-PDC patient-derived pancreatic carcinoma cell line growth inhibition [KRAS2]
appliedConditions: second compound 3.16 µM; first compound 0.0316 µM; stronger effect = lower value
metric: viability, T/C (%)
Only the number, expressed in %, is required.

molecule	metric	endpointResult
Cn1ncnc1[C@H]1c2n[nH]c(=O)c3cc(F)cc(c23)N[C@@H]1c1ccc(F)cc1 + CNCc1ccccc1-c1csc(C(C)Nc2nc(C)nc3cc(OC)c(OC)cc23)c1	viability, T/C	1.22
CC(C)n1nc(-c2ccc3oc(N)nc3c2)c2c(N)ncnc21 + CNCc1ccccc1-c1csc(C(C)Nc2nc(C)nc3cc(OC)c(OC)cc23)c1	viability, T/C	1.57

Now for the molecule whose viability, T/C we want.
# input molecule: CCNC(=O)CC1N=C(c2ccc(Cl)cc2)c2cc(OC)ccc2-n2c(C)nnc21 (stereo not drawn) + CC1OCC2(CCN(c3cnc(Sc4ccnc(N)c4Cl)c(N)n3)CC2)C1N ; wanted: its viability, T/C
106

----------
Attribute: viability, T/C
Tested on: KRAS PDC multicell spheroid viability
assayInfo: Anticancer human tumor 521955-158-R6-J3-PDC cell line growth inhibition [KRAS2];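 further: drug exposure lasted seven days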;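 on viability, T/C: 100% = DMSO vehicle wells and lower means fewer viable cells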
appliedConditions: second compound 1 µM; first compound 1 µM; stronger effect = lower value
# output: bare number, implied unit %

Examples with their reported viability, T/C follow.
compound	viability, T/C (%)
O=C(c1cc(Cc2n[nH]c(=O)c3ccccc23)ccc1F)N1CCN(C(=O)C2CC2)CC1 + C=CC(=O)N1CCN(c2nc(OCC3CCCN3C)nc3c2CCN(c2cccc4cccc(C)c24)C3)CC1CC#N	73.4
CC(=O)OC12COC1CC(O)C1(C)C(=O)C(O)C3=C(C)C(OC(=O)C(O)C(NC(=O)OC(C)(C)C)c4ccccc4)CC(O)(C(OC(=O)c4ccccc4)C21)C3(C)C (centres undefined) + COc1cc2nc(C)nc(NC(C)c3cc(N)cc(C(F)(F)F)c3)c2cc1OC1CCOC1	86.2
CC(=O)OC12COC1CC(O)C1(C)C(=O)C(O)C3=C(C)C(OC(=O)C(O)C(NC(=O)OC(C)(C)C)c4ccccc4)CC(O)(C(OC(=O)c4ccccc4)C21)C3(C)C (centres undefined) + C=CC(=O)N1CCN(c2nc(OCC3CCCN3C)nc3c2CCN(c2cccc4cccc(C)c24)C3)CC1CC#N	113
Cn1nccc1Nc1nccc(-c2cc3c(s2)C(C)(C)N(CCN2CCOCC2)C3=O)n1 + CC1OCC2(CCN(c3cnc(Sc4ccnc(N)c4Cl)c(N)n3)CC2)C1N	72.2
COc1cc(Nc2ncc3c(n2)-c2ccc(Cl)cc2C(c2c(F)cccc2OC)=NC3)ccc1C(=O)O + C=CC(=O)N1CCN(c2nc(=O)n(-c3c(C)ccnc3C(C)C)c3nc(-c4c(O)cccc4F)c(F)cc23)C(C)C1	95.6
CC(=O)OC12COC1CC(O)C1(C)C(=O)C(O)C3=C(C)C(OC(=O)C(O)C(NC(=O)OC(C)(C)C)c4ccccc4)CC(O)(C(OC(=O)c4ccccc4)C21)C3(C)C (centres undefined) + C=CC(=O)N1CCN(c2nc(=O)n(-c3c(C)ccnc3C(C)C)c3nc(-c4c(O)cccc4F)c(F)cc23)C(C)C1	65.6
CCNC(=O)CC1N=C(c2ccc(Cl)cc2)c2cc(OC)ccc2-n2c(C)nnc21 (centres undefined) + CNCc1ccccc1-c1csc(C(C)Nc2nc(C)nc3cc(OC)c(OC)cc23)c1	62.8
CC1OCC2(CCN(c3cnc(Sc4ccnc(N)c4Cl)c(N)n3)CC2)C1N (centres undefined) + CNCc1ccccc1-c1csc(C(C)Nc2nc(C)nc3cc(OC)c(OC)cc23)c1	72

What does the record list as viability, T/C for CC(=O)OC12COC1CC(O)C1(C)C(=O)C(O)C3=C(C)C(OC(=O)C(O)C(NC(=O)OC(C)(C)C)c4ccccc4)CC(O)(C(OC(=O)c4ccccc4)C21)C3(C)C (centres undefined) + CC1OCC2(CCN(c3cnc(Sc4ccnc(N)c4Cl)c(N)n3)CC2)C1N ?
96.7

----------
System: KRAS PDC multicell spheroid viability
assayInfo: Anticancer human tumor 521955-158-R6-J3-PDC cell line growth inhibition [KRAS2];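 further: drug exposure lasted seven days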
appliedConditions: curve of first compound; second compound 0.0316 µM
# IC50 listing for each entry below

Would you please look over these solved cases?
compound	IC50
CC1COCCN1c1cc(-c2ccnn2C)c2ccnc(-c3ccn[nH]3)c2n1 (stereo not given) + C=CC(=O)N1CCN(c2nc(OCC3CCCN3C)nc3c2CCN(c2cccc4cccc(C)c24)C3)CC1CC#N	> 3.16 µM
CC(C)n1nc(-c2ccc3oc(N)nc3c2)c2c(N)ncnc21 + C=CC(=O)N1CCN(c2nc(OCC3CCCN3C)nc3c2CCN(c2cccc4cccc(C)c24)C3)CC1CC#N	0.0691 µM
COC(=O)c1ccc2c(C(=Nc3ccc(N(C)C(=O)CN4CCN(C)CC4)cc3)c3ccccc3)c(O)[nH]c2c1 + C=CC(=O)N1CCN(c2nc(OCC3CCCN3C)nc3c2CCN(c2cccc4cccc(C)c24)C3)CC1CC#N	3.09 µM
COc1cc2nccc(Oc3ccc(NC(=O)C4(C(=O)Nc5ccc(F)cc5)CC4)cc3)c2cc1OC + C=CC(=O)N1CCN(c2nc(OCC3CCCN3C)nc3c2CCN(c2cccc4cccc(C)c24)C3)CC1CC#N	> 10 µM
CC(=O)Nc1cccc(-n2c(=O)n(C3CC3)c(=O)c3c(Nc4ccc(I)cc4F)n(C)c(=O)c(C)c32)c1 + C=CC(=O)N1CCN(c2nc(OCC3CCCN3C)nc3c2CCN(c2cccc4cccc(C)c24)C3)CC1CC#N	> 0.0316 µM

Request the reported IC50 associated with COc1cc(Nc2ncc3c(n2)-c2ccc(Cl)cc2C(c2c(F)cccc2OC)=NC3)ccc1C(=O)O + C=CC(=O)N1CCN(c2nc(OCC3CCCN3C)nc3c2CCN(c2cccc4cccc(C)c24)C3)CC1CC#N
> 10 µM

Could you tell me which IC50 is on file for O=C(c1cc(Cc2n[nH]c(=O)c3ccccc23)ccc1F)N1CCN(C(=O)C2CC2)CC1 + C=CC(=O)N1CCN(c2nc(OCC3CCCN3C)nc3c2CCN(c2cccc4cccc(C)c24)C3)CC1CC#N ?
> 10 µM

Give the measured IC50 of CC1OCC2(CCN(c3cnc(Sc4ccnc(N)c4Cl)c(N)n3)CC2)C1N (stereo not given) + C=CC(=O)N1CCN(c2nc(OCC3CCCN3C)nc3c2CCN(c2cccc4cccc(C)c24)C3)CC1CC#N .
> 10 µM

Param item = CC(C)NCC(C(=O)N1CCN(c2ncnc3c2C(C)CC3O)CC1)c1ccc(Cl)cc1 (stereo not given) + C=CC(=O)N1CCN(c2nc(OCC3CCCN3C)nc3c2CCN(c2cccc4cccc(C)c24)C3)CC1CC#N ; retrieve measured IC50.
> 10 µM

May I ask what IC50 has been recorded for Cn1ncnc1[C@H]1c2n[nH]c(=O)c3cc(F)cc(c23)N[C@@H]1c1ccc(F)cc1 + C=CC(=O)N1CCN(c2nc(OCC3CCCN3C)nc3c2CCN(c2cccc4cccc(C)c24)C3)CC1CC#N ?
> 0.1 µM

----------
Tested on: KRAS PDC multicell spheroid viability
assayInfo: Anticancer human tumor 521955-158-R6-J3-PDC cell line growth inhibition [KRAS2];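 further: drug exposure lasted seven days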;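 on viability, T/C: 100% = DMSO vehicle wells and lower means fewer viable cells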
appliedConditions: second compound 3.16 µM; first compound 10 µM; stronger effect = lower value
Labelling: viability, T/C reported below 40% becomes y; at or above becomes n.

Some entries whose results are on file:
compound	assignedClass
CC(C)NCC(C(=O)N1CCN(c2ncnc3c2C(C)CC3O)CC1)c1ccc(Cl)cc1 (stereo not given) + CC1OCC2(CCN(c3cnc(Sc4ccnc(N)c4Cl)c(N)n3)CC2)C1N	n
O=C(c1cc(Cc2n[nH]c(=O)c3ccccc23)ccc1F)N1CCN(C(=O)C2CC2)CC1 + CNCc1ccccc1-c1csc(C(C)Nc2nc(C)nc3cc(OC)c(OC)cc23)c1	y
CC(C)NCC(C(=O)N1CCN(c2ncnc3c2C(C)CC3O)CC1)c1ccc(Cl)cc1 (stereo not given) + COc1cc2nc(C)nc(NC(C)c3cc(N)cc(C(F)(F)F)c3)c2cc1OC1CCOC1	n

Consider the additional compound presented here.
Item COc1cc(Nc2ncc3c(n2)-c2ccc(Cl)cc2C(c2c(F)cccc2OC)=NC3)ccc1C(=O)O + CC1OCC2(CCN(c3cnc(Sc4ccnc(N)c4Cl)c(N)n3)CC2)C1N : viability, T/C beneath 40%, strictly?
n

----------
System: KRAS PDC multicell spheroid viability
assayInfo: Anticancer human tumor 521955-158-R6-J3-PDC cell line growth inhibition [KRAS2];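 further: drug exposure lasted seven days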;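 on viability, T/C: 100% = DMSO vehicle wells and lower means fewer viable cells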
appliedConditions: second compound 1 µM; first compound 1 µM; stronger effect = lower value
Here, each record is paired with measured viability, T/C data.
The answer is to be given in %; state only the numeric part.

compound	unitName	endpointResult
CC1(C)CCC(CN2CCN(c3ccc(C(=O)NS(=O)(=O)c4ccc(NCC5CCOCC5)c([N+](=O)[O-])c4)c(Oc4cnc5[nH]ccc5c4)c3)CC2)=C(c2ccc(Cl)cc2)C1 + COc1cc2nc(C)nc(NC(C)c3cc(N)cc(C(F)(F)F)c3)c2cc1OC1CCOC1	%	89.5

With those in mind, consider the next compound.
Entry under review: CC1(C)CCC(CN2CCN(c3ccc(C(=O)NS(=O)(=O)c4ccc(NCC5CCOCC5)c([N+](=O)[O-])c4)c(Oc4cnc5[nH]ccc5c4)c3)CC2)=C(c2ccc(Cl)cc2)C1 + CC1OCC2(CCN(c3cnc(Sc4ccnc(N)c4Cl)c(N)n3)CC2)C1N . Reported viability, T/C?
99

Where these numbers come from: PubChem BioAssay AID1963864
